// % of Dose of Tc99m Complex in Brain, 5 min lookup, one value per entry
- Method: Biodistribution studies in ICR white mice: percent of injected dose of Tc-99m complex in brain tissue
- Format: in vivo
- Conditions: ICR white mice, i.v. (tail), 0.5 to 2 microcuries, saline, 5 min

Example results:
molecule="CC(C)(S)CNC(C)(C)CN(CCN1CCCCC1)CC(C)(C)S [Compound 9]" observed_measurement="2.19 % of Dose"
molecule="CN(C)CCN(CCNCC(C)(C)S)CC(C)(C)S [Compound 2]" observed_measurement="0.89 % of Dose"
molecule="CC(C)(S)CNCCNCC(C)(C)S [Compound 1, reference compound]" observed_measurement="1.02 % of Dose"

Next molecule, % of Dose of Tc99m Complex in Brain, 5 min to be filled in.
Would you kindly share the measured % of Dose of Tc99m Complex in Brain, 5 min for CC(C)NCCN(CCNCC(C)(C)S)CC(C)(C)S [Compound 3] ?
0.64 % of Dose

###

// % of Dose of Tc99m Complex in Brain, 15 min lookup, one value per entry
- Method: Biodistribution studies in ICR white mice: percent of injected dose of Tc-99m complex in brain tissue
- Type: in vivo
- Conditions: ICR white mice, i.v. (tail), 0.5 to 2 microcuries, saline, 15 min

compound="CC(C)(S)CNCCNCC(C)(C)S [Compound 1, reference compound]" observed_measurement="0.03 % of Dose"

Would you kindly share the measured % of Dose of Tc99m Complex in Brain, 15 min for CN(C)CCN(CCNCC(C)(C)S)CC(C)(C)S [Compound 2] ?
0.42 % of Dose

Would you kindly share the measured % of Dose of Tc99m Complex in Brain, 15 min for CC(C)(S)CNC(C)(C)CN(CCN1CCCCC1)CC(C)(C)S [Compound 9] ?
1.01 % of Dose

Would you kindly share the measured % of Dose of Tc99m Complex in Brain, 15 min for CC(C)NCCN(CCNCC(C)(C)S)CC(C)(C)S [Compound 3] ?
0.49 % of Dose
